B1: PLAGL1 (parent)
chain: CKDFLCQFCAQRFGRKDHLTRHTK

# Variants of: B1
# EXPERIMENT_NOTES: protein stability index of a GFP-peptide fusion (GPS, HEK-293T) (PSI 1-6); higher = more stable;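 note: lentivirally expressed fusions sorted by FACS into six bins by GFP to DsRed ratio, PSI derived from sequencing read proportions per bin multiplied by bin number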
# CONDITION_PARAMETERS: c terminus: a fixed tail appended
Catalogue of protein stability index readings, one per entry.
I only need the number, thanks.

Please review the following examples before continuing.
[[record]]
alteration = "L19E"
value_kind = "protein stability index"
reported = 1.99

[[record]]
alteration = "G14Y"
value_kind = "protein stability index"
reported = 1.99


Reported protein stability index for "T23M" : what is it?
2.04

What about this variant? "F8E"
2.62

What would you report for "C1A" ?
3.04

Next up: "R21T"
1.77

"Q7R" ?
2.08

What would you report for "H18T" ?
2.25

Field entry: "K16Q"
2.62

Now try "C1Q" .
2.11
